tested on: uninfected MT-4 cells; experiment: Test B: Cytotoxicity Assay; type: cell-based
Outcome Measure: CC50 (µM)

| Compound | Op | Reported Value |
| --- | --- | --- |
| COc1ccc(-c2ccc(C#CC(C)(C)O)nc2[C@H](Cc2cc(F)cc(F)c2)NC(=O)Cn2nc(C(F)F)c3c2C(F)(F)[C@@H]2C[C@H]32)c2c1c(N)nn2C [Compound 114G] | = | 14.8 |
| C#Cc1ccc(-c2ccc(Cl)c3cnn(C)c23)c([C@H](Cc2cc(F)cc(F)c2)NC(=O)Cn2nc(C(F)F)c3c2C(F)(F)[C@@H]2C[C@H]32)n1 [Compound 136D] | = | 7.43 |
| Cn1nc(NS(C)(=O)=O)c2c(Cl)ccc(-c3ccc(C#CC(C)(C)O)nc3[C@H](Cc3cc(F)cc(F)c3)NC(=O)Cn3nc(C4(O)CC4)c4c3CCCC4)c21 [Compound 156E] | = | 25.6 |
| Cn1nc(N)c2c(C#N)ccc(-c3ccc(C#CC(C)(C)O)nc3[C@H](Cc3cc(F)cc(F)c3)NC(=O)Cn3nc(C(F)F)c4c3C(F)(F)[C@@H]3C[C@H]43)c21 [Compound 77E] | = | 11.8 |
| Cn1nc(N)c2c(Cl)ccc(-c3ccc(C#CC(C)(C)O)nc3[C@H](Cc3cc(F)cc(F)c3)NC(=O)Cn3nc(C(F)(F)F)c4c3C(F)(F)[C@@H]3C[C@H]43)c21 [Compound 55C] | = | 9.56 |
| Cn1nc(NS(C)(=O)=O)c2c(Cl)ccc(-c3ccc(C#CC(C)(C)O)nc3[C@H](Cc3cc(F)cc(F)c3)NC(=O)Cn3nc(N)c4c3C(F)(F)[C@@H]3C[C@H]43)c21 [Compound 148B] | = | 23.3 |
| CC(C)(O)C#Cc1ccc(-c2ccc(Cl)n3c(N)nnc23)c([C@H](Cc2cc(F)cc(F)c2)NC(=O)Cn2nc(C(F)F)c3c2C(F)(F)[C@@H]2C[C@H]32)n1 [Compound 106E] | = | 12.4 |
| CCNc1nn(C)c2c(-c3ccc(C#CC(C)(C)O)nc3[C@H](Cc3cc(F)cc(F)c3)NC(=O)Cn3nc(C(F)F)c4c3C(F)(F)[C@@H]3C[C@H]43)ccc(Cl)c12 [Compound 91E] | = | 9.38 |
| Cn1nc(NS(=O)(=O)C(F)(F)F)c2c(Cl)ccc(-c3ccc(C#CC(C)(C)O)nc3[C@H](Cc3cc(F)cc(F)c3)NC(=O)Cn3nc(C(F)F)c4c3C(F)(F)[C@@H]3C[C@H]43)c21 [Compound 171D] | > | 42.5 |
| Cn1nc(NS(C)(=O)=O)c2c(Cl)ccc(-c3ccc(C#CC(C)(C)O)nc3[C@H](Cc3cccc(F)c3)NC(=O)Cn3nc(C(F)(F)F)c4c3C(F)(F)[C@@H]3C[C@H]43)c21 [Compound 187G] | = | 19.8 |
| CC(C)(O)C#Cc1ccc(-c2ccc3nnc(N)n3c2)c([C@H](Cc2cc(F)cc(F)c2)NC(=O)Cn2nc(C(F)F)c3c2C(F)(F)[C@@H]2C[C@H]32)n1 [Compound 105E] | = | 31.5 |
| CC(C)(O)C#Cc1ccc(-c2ccc(Cl)n3c(NS(C)(=O)=O)nnc23)c([C@H](Cc2cc(F)cc(F)c2)NC(=O)Cn2nc(C(F)F)c3c2C(F)(F)[C@@H]2C[C@H]32)n1 [Compound 110E] | > | 53.2 |

Cited source for all entries: patent US9951043B2
